Target: T1, PD-L2 fuse-expressed with an Fc derived from human IgG1 (human, UniProt Q9BQ51 20-219, limits assumed)
T1 construct: Bought reagent; also called hPD-L2-Fc; not shown: Fc of human IgG1
T1 sequence (looked up): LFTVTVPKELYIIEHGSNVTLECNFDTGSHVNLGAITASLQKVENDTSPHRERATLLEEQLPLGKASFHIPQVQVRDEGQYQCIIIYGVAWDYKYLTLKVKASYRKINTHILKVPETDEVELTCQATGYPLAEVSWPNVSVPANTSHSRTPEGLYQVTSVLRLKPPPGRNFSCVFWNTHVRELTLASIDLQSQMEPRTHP
Experiment Summary: SPR Biacore T200; PD1-RFc mobile phase
Quantity Measured: koff (s⁻¹)
Please respond with the number in s⁻¹ and leave the unit unwritten.

Input line: Dear colleague, I am looking for the recorded koff of the following binder: Seq No. 2-RFc (PD-1 variant PD1_56# fused to rabbit IgG Fc) (Fc fusion, Signal peptide 1-20 left out; also called variant 1; Mut1/56#; not shown: rabbit IgG Fc (RFc) of vector pcDNA3.4-RFc) PGWFLDSPDRPWNPPTFSPALLVVTEGDNATFTCSFSNTSESFVLNWYRMSPSNQTDKLAAFPEDRSQPGQDCRFRVTQLPNGRDFHMSVVRARRNDSGTYLCGAISLSTPVWIKESLRAELRVTERRAEVPTAH
Output line: 0.00657
